Conditions: in toluene, 298.17 K
Property: solubility (mole fraction); scope: individual molecules
Value kind: solubility (mole fraction)

>>> print(df.to_string())
                                   molecule                  value_kind  recorded_number
0  O=P1(Oc2ccccc2)OCC2(CO1)COP(=O)(Oc1ccccc1)OC2 (stereo unspecified)  solubility (mole fraction)          0.00115
1                  O=C(O)CCP(=O)(O)c1ccccc1  solubility (mole fraction)          0.00059
2   COc1ccc(P(c2ccc(OC)cc2)c2ccc(OC)cc2)cc1  solubility (mole fraction)          0.00042
3  O=P1(O)OCC2(CO1)COP(=O)(O)OC2 (stereo unspecified)  solubility (mole fraction)          0.00059
4                        O=P(O)(CO)c1ccccc1  solubility (mole fraction)           0.0013
5  COc1ccc(P(=O)(c2ccc(OC)cc2)c2ccc(OC)cc2)cc1  solubility (mole fraction)          0.00045
